The compounds listed here are annotated with their inhibition.
system: Plasmodium falciparum; experiment: Inhibition of Plasmodium falciparum protein farnesyltransferase at 0.5 nM by scintillation proximity assay
recorded-endpoint: inhibition (%)

CCOC(=O)N1CCC(CN(C2Cc3cc(C#N)ccc3N(Cc3cncn3C)C2)S(=O)(=O)c2ccccn2)CC1 (stereo not drawn)
95
Cn1cncc1CN1CC(N(CC2CCNCC2)S(=O)(=O)c2ccccn2)Cc2cc(C#N)ccc21 (stereo not drawn)
0
COC(=O)N1CCC(CN(C2Cc3cc(C#N)ccc3N(Cc3cncn3C)C2)S(=O)(=O)c2ccc(C(=O)O)o2)CC1 (stereo not drawn)
5
CC(=O)OCC(=O)N(Cc1ccccc1F)C1Cc2cc(C#N)ccc2N(Cc2cncn2C)C1 (stereo not drawn)
0
COC(=O)N1CCC(CN(C2Cc3cc(C#N)ccc3N(Cc3cncn3C)C2)S(=O)(=O)c2cccc3nonc23)CC1 (stereo not drawn)
31
COC(=O)NCCCCN(C1Cc2cc(C#N)ccc2N(Cc2cncn2C)C1)S(=O)(=O)c1ccccn1 (stereo not drawn)
25
COC(=O)N1CCC(CN(C2Cc3cc(C#N)ccc3N(Cc3cncn3C)C2)S(=O)(=O)c2cccc(F)c2)CC1 (stereo not drawn)
39
Cn1cnc(S(=O)(=O)N(Cc2ccc(S(C)(=O)=O)cc2)C2Cc3cc(C#N)ccc3N(Cc3cncn3C)C2)c1 (stereo not drawn)
82

Source listed as ChEMBL document CHEMBL1148785.
